biological target: cynomolgus complement C3b protein (cynomolgus monkey (Macaca fascicularis)); assay: cell-based or functional assay
The following binders are shown together with reported MAC Dep (nM), cyno serum, IC50 values.
METRIC: MAC Dep (nM), cyno serum, IC50

# BINDER, METRIC, UNIT OF MEASURE, TEST VALUE
records = [
    ("MOR09373 Fab (Fab, V domains shown, also called Fab 9373) VH: QVQLVQSGAEVKKPGASVKVSCKASGYTFTSYSMHWVRQAPGQGLEWMGLINPYNGNTHYAQKFQGRVTMTRDTSISTAYMELSSLRSEDTAVYYCARMLRFDVWGQGTLVTVSS VL: DIALTQPASVSGSPGQSITISCTGTSSDGGGYNYVSWYQQHPGKAPKLMIYGVSNRPSGVSNRFSGSKSGNTASLTISGLQAEDEADYYCQTYTRYSDSPVFGGGTKLTVLG", "MAC Dep (nM), cyno serum, IC50", "nM", 6),
    ("MOR09397 Fab (Fab, V domains shown, also called Fab 9397) VH: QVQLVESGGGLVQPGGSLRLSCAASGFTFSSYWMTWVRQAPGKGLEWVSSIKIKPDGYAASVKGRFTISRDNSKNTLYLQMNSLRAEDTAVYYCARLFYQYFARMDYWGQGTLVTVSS VL: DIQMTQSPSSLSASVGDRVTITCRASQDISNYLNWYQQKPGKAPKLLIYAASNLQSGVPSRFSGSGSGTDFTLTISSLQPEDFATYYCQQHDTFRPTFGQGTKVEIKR", "MAC Dep (nM), cyno serum, IC50", "nM", 7),
    ("MOR09423 Fab (Fab, V domains shown, also called Fab 9423) VH: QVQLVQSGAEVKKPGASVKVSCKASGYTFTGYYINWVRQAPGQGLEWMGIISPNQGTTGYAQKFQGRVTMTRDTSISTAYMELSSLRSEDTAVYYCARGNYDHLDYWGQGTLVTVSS VL: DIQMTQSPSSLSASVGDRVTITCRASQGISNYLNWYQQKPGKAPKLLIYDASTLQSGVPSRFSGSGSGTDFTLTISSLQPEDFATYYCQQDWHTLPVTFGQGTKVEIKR", "MAC Dep (nM), cyno serum, IC50", "nM", 4),
]
